- target: Factor X (FX), P00742
- Sequence (P00742 whole entry, looked up): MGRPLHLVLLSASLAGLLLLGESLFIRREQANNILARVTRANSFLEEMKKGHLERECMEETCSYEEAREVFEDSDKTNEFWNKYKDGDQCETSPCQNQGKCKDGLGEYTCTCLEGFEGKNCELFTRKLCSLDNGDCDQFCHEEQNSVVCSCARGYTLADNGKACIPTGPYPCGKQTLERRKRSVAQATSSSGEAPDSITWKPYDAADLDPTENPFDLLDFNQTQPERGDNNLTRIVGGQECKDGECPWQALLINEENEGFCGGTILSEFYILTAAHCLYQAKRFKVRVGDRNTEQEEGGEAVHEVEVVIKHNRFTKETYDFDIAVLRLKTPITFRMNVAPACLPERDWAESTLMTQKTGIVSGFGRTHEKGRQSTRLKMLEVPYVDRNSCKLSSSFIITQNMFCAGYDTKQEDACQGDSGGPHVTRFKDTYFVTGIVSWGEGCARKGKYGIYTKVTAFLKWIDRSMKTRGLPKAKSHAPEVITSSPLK
parameter measured: KM (µM)
Unit µM implied. Number only.

### Prompt Given FIXa-R318Y/R338E/T343R/R403E/E410N (protein) chain 1: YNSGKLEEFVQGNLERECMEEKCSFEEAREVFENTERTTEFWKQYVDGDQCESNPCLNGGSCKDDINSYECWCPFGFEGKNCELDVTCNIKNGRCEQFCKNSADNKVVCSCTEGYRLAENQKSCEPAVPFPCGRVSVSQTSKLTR chain 2: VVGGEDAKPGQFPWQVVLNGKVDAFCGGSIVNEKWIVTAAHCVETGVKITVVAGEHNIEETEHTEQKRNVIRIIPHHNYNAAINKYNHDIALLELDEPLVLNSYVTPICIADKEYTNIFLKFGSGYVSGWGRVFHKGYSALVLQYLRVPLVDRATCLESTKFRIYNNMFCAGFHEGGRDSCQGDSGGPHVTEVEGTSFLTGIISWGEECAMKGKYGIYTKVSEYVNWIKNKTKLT , state its recorded KM.
### Response 0.0223

### Prompt Given FIXa-Y155F/K247N/N249S/R318Y/R338E/T343R/R403E (protein) chain 1: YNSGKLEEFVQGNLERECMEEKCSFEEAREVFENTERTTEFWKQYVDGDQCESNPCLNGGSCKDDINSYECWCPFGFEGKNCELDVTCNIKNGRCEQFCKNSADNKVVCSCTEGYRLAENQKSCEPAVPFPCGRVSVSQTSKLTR chain 2: VVGGEDAKPGQFPWQVVLNGKVDAFCGGSIVNEKWIVTAAHCVETGVKITVVAGEHNIEETEHTEQNRSVIRIIPHHNYNAAINKYNHDIALLELDEPLVLNSYVTPICIADKEYTNIFLKFGSGYVSGWGRVFHKGYSALVLQYLRVPLVDRATCLESTKFRIYNNMFCAGFHEGGRDSCQGDSGGPHVTEVEGTSFLTGIISWGEECAMKGKYGIYTKVSEYVNWIKEKTKLT , state its recorded KM.
### Response 0.0365

### Prompt Given FIXa-R318Y/R338E/E410N/T412V (protein) chain 1: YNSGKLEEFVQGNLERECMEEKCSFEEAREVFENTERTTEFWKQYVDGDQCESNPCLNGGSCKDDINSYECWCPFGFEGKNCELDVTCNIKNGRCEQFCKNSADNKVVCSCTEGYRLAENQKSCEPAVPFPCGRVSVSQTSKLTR chain 2: VVGGEDAKPGQFPWQVVLNGKVDAFCGGSIVNEKWIVTAAHCVETGVKITVVAGEHNIEETEHTEQKRNVIRIIPHHNYNAAINKYNHDIALLELDEPLVLNSYVTPICIADKEYTNIFLKFGSGYVSGWGRVFHKGYSALVLQYLRVPLVDRATCLESTKFTIYNNMFCAGFHEGGRDSCQGDSGGPHVTEVEGTSFLTGIISWGEECAMKGKYGIYTKVSRYVNWIKNKVKLT , state its recorded KM.
### Response 0.0297

### Prompt Given FIXa-K247N/N249S/R318Y/T343R/E410N (protein) chain 1: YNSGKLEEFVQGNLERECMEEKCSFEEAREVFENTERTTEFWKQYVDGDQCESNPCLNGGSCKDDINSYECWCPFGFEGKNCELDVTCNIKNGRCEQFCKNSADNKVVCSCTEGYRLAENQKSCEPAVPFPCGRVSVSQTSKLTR chain 2: VVGGEDAKPGQFPWQVVLNGKVDAFCGGSIVNEKWIVTAAHCVETGVKITVVAGEHNIEETEHTEQNRSVIRIIPHHNYNAAINKYNHDIALLELDEPLVLNSYVTPICIADKEYTNIFLKFGSGYVSGWGRVFHKGYSALVLQYLRVPLVDRATCLRSTKFRIYNNMFCAGFHEGGRDSCQGDSGGPHVTEVEGTSFLTGIISWGEECAMKGKYGIYTKVSRYVNWIKNKTKLT , state its recorded KM.
### Response 0.0401

### Prompt Given FIXa-R318Y/R338E/T343R/R403E/E410S (protein) chain 1: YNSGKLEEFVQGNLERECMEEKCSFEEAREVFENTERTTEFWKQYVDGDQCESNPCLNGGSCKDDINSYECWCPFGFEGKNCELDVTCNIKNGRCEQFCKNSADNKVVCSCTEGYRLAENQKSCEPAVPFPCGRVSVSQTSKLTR chain 2: VVGGEDAKPGQFPWQVVLNGKVDAFCGGSIVNEKWIVTAAHCVETGVKITVVAGEHNIEETEHTEQKRNVIRIIPHHNYNAAINKYNHDIALLELDEPLVLNSYVTPICIADKEYTNIFLKFGSGYVSGWGRVFHKGYSALVLQYLRVPLVDRATCLESTKFRIYNNMFCAGFHEGGRDSCQGDSGGPHVTEVEGTSFLTGIISWGEECAMKGKYGIYTKVSEYVNWIKSKTKLT , state its recorded KM.
### Response 0.019

### Prompt Given FIXa-K228N/K247N/N249S/R318Y/R338E/R403E/E410N (protein) chain 1: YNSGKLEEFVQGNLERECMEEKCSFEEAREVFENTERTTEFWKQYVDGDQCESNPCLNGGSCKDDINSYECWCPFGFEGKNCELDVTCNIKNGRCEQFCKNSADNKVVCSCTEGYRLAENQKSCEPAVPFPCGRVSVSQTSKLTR chain 2: VVGGEDAKPGQFPWQVVLNGKVDAFCGGSIVNEKWIVTAAHCVETGVNITVVAGEHNIEETEHTEQNRSVIRIIPHHNYNAAINKYNHDIALLELDEPLVLNSYVTPICIADKEYTNIFLKFGSGYVSGWGRVFHKGYSALVLQYLRVPLVDRATCLESTKFTIYNNMFCAGFHEGGRDSCQGDSGGPHVTEVEGTSFLTGIISWGEECAMKGKYGIYTKVSEYVNWIKNKTKLT , state its recorded KM.
### Response 0.0558

### Prompt Given FIXa Y155F/R338E/R403E/E410N (protein) chain 1: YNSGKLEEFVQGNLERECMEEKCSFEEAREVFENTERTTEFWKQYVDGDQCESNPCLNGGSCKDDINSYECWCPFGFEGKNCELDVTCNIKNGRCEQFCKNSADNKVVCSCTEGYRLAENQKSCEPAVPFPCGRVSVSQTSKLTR chain 2: VVGGEDAKPGQFPWQVVLNGKVDAFCGGSIVNEKWIVTAAHCVETGVKITVVAGEHNIEETEHTEQKRNVIRIIPHHNYNAAINKYNHDIALLELDEPLVLNSYVTPICIADKEYTNIFLKFGSGYVSGWGRVFHKGRSALVLQYLRVPLVDRATCLRSTKFTIYNNMFCAGFHEGGEDSCQGDSGGPHVTEVEGTSFLTGIISWGEECAMKGKYGIYTKVSEYVNWIKNKTKLT , state its recorded KM.
### Response 0.0336

Cited source for all entries: patent US20210238260
